# Test system: UACC-62
# Protocol summary: NCI tumour cell line growth inhibition, 48 h
The source made the active and inactive calls. Rule as the data show it: active = GI50 up to about 1.1 µM and inactive = higher.
Measurement type: GI50

[[record]]
molecule = "NCCCNCc1c2ccccc2c(CNCCCN)c2ccccc12"
value_reported = "36.1 µM (inactive)"

[[record]]
molecule = "COC(=O)C(=O)C(C(=O)C=C(C)C)C(=O)C(=O)Nc1ccc(Cl)cc1C (stereo not given)"
value_reported = "> 100 µM (inactive)"

[[record]]
molecule = "CCCCCCCCCCCCCCCC(=O)OCC1OC(n2cc(F)c(=O)[nH]c2=O)C(N)C(O)C1O (stereo not given)"
value_reported = "16.2 µM (inactive)"


// for each molecule below, give its GI50
1. O=C1/C(=C\c2cccc(Oc3ccccc3)c2)SC(c2ccccc2)N1Cc1ccccc1 (stereo not given)
2. c1cc2cc(Cc3ccc4[nH]ccc4c3)ccc2[nH]1
3. COc1ccc(CC2c3cc(OC)c(OC)cc3CC[N+]2(C)C)cc1OC (stereo not given)
4. CN1C2=Nc3n(C)c4ccccc4[n+]3CN2c2ccccc21
5. CC(=O)OC1C[C@@H](C)C2(CC(c3ccoc3)OC2=O)C2CCC(O)C3(CO3)C12CO (stereo not given in full)
6. Cc1ccc2c(/C=C/c3ccc(N(C)C)cc3)ccc(C(C)C)cc1-2
7. COc1ccc2c(-c3cc4ccccc4o3)cc(=O)oc2c1

// result
29.3 µM (inactive)
17.2 µM (inactive)
> 100 µM (inactive)
17 µM (inactive)
> 100 µM (inactive)
> 100 µM (inactive)
67.5 µM (inactive)

---

# Tested on: HOP-92
# Protocol summary: NCI tumour cell line growth inhibition, 48 h
The source made the active and inactive calls. Cut-off read from the data, not from the text of the source: active = GI50 up to about 1.1 µM and inactive = higher.
Parameter call: string, one of t for active, f for inactive

Worked cases, answers included:
[[record]]
compound = "C[n+]1c2ccccc2n2c3ccccc3c(NCCCn3ccnc3)c(C#N)c21"
class_label = "f"

[[record]]
compound = "NC(Cc1c2ccccc2cc2ccccc12)C(=O)O (centres undefined)"
class_label = "f"

[[record]]
compound = "O=Cc1c(Cn2ccnc2)c2cc([N+](=O)[O-])ccc2n1Cc1ccccc1"
class_label = "f"

[[record]]
compound = "O=C1c2c(c3c4ccccc4[nH]c3c3[nH]c4ccccc4c23)C(=O)N1Cc1ccccc1"
class_label = "f"


// query Call for entry COc1cc(C2S/C(=C/c3ccccc3)C(=O)N2c2cccc(NC(C)=O)c2)cc(OC)c1OC (centres undefined) :
// result f

// query Try this compound next: c1cc2c(cc1NC1=NCCO1)OCO2
// result f

---

# Tested on: SNB-19
# Protocol summary: NCI tumour cell line growth inhibition, 48 h
Activity calls are given as the source filed them. Cut-off read from the data, not from the text of the source: active = GI50 up to about 1.1 µM and inactive = higher.
// allowed return values: T = active, F = inactive

Recorded results for 3 compounds are shown here.
[[record]]
compound = "O=[As](O)(O)c1ccc2nc3cc([As](=O)(O)O)ccc3nc2c1"
class_label = "F"

[[record]]
compound = "COC(=O)C1C(O)C(C)C(O)OC1C(C)C(O)C(C)/C=C\\C=C(/C)C(=O)Nc1c(C)c(OC(C)=O)c2c(c1O)C(=O)C(C)=C1OCOC(/C(C)=C/C(C)=O)=C12 (configuration not stated)"
class_label = "F"

[[record]]
compound = "O=C(N/C(=C\\c1ccc(/C=C(\\NC(=O)c2ccccc2)c2nc3c(O)nc(S)nc3[nH]2)cc1)c1nc2c(O)nc(S)nc2[nH]1)c1ccccc1"
class_label = "F"


// query # lookup: test call for COc1cc(O)c2c(c1)C(=O)c1cc3c(c(O)c1C2=O)C(OC1OC(C)C(O)C(O)C1OC)C(OC)C(C)(O)C3=O (configuration not stated)
// result F

// query Please give the result for NNC(N)Nc1ccccc1 (configuration not stated) too.
// result F

// query Okay, and COc1ccc(C[C@H]2NC[C@H](OC(C)=O)[C@H]2OC(C)=O)cc1 ?
// result T

// query Further, for N#Cc1c(-c2ccccc2)[nH]c2ccccc2c1=O ?
// result F
